- METHOD_SUMMARY: NCI Yeast Anticancer Drug Screen. Data for the sgs1 mgt1 strain (AID 161);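 also: 0% = growth of cultures given vehicle only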
- CONDITIONS_USED: S. cerevisiae sgs1 mgt1 strain, at 50.0 µM, active compounds read high
About 79,000 compounds went through this panel and 15% of them were active in at least one assay; those are over-represented in the sample as a whole.
PARAMETER: growth inhibition (%)
Form entry: value (%) — number only.

A selection of reference data follows.
Cc1cc(Cc2cc(C)c(N)cc2N)c(N)cc1N
-23.9
O=C(Nc1cc(-c2ccccc2)[nH]n1)c1ccc(Cl)cc1
6.05
O=C(c1ccc(O)cc1)c1ccc(O)cc1
15.2
Cc1cc(/C=C/c2ccc3cc(N(C)C)ccc3[n+]2C)c(C)n1-c1ccccc1
92.8
O=C(N/N=C\c1cc(Br)cc(Br)c1O)N/N=C/c1cc(Br)cc(Br)c1O
43
CNS(=O)(=O)c1ccc(Cl)c(Cl)c1
-13.5
CC(=O)c1cc2c(cc1F)C(C)(C)CCC2(C)C
-19.1
Nc1ncnc2[nH]ncc12
37

Consider now this further molecule.
INPUT: Dear colleague, I am looking for the recorded growth inhibition of the following molecule: c1ccc(CN2COc3c(ccc4c3OCN(Cc3ccccc3)C4)C2)cc1
OUTPUT: 23.1

====

- METHOD_SUMMARY: NCI Yeast Anticancer Drug Screen. Data for the mlh1 rad18 strain (AID 175)
- CONDITIONS_USED: S. cerevisiae mlh1 rad18 strain growth inhibition; at 50.0 µM; active compounds read high
Compounds without any hit were thinned out: in the full panel of roughly 79,000, 15% have a hit.
Label scheme for growth inhibition: lower than 10% is not fulfilled, 10% and above is fulfilled.

Look over these answered cases.
O=c1[nH][nH]c(=O)c2cc([N+](=O)[O-])ccc12
fulfilled
C/C(=N\O)C1(O)CCCCC1
fulfilled
Cc1cc(C)c(N)c(S(=O)(=O)O)c1
not fulfilled

INPUT: Does the compound CC1CCCCN1C(=S)Nc1ccc(S(=O)(=O)N2CCCCC2)cc1 (stereo not drawn) have recorded growth inhibition that is 10% or more?
OUTPUT: not fulfilled

====

- METHOD_SUMMARY: NCI Yeast Anticancer Drug Screen. Data for the bub3 strain (AID 167)
- CONDITIONS_USED: S. cerevisiae bub3 mutant strain, at 50.0 µM, active compounds read high
About 79,000 compounds went through this panel and 15% of them were active in at least one assay; those are over-represented in the sample as a whole.
PARAMETER: growth inhibition (%)
Form entry: value (%) — number only.

A selection of reference data follows.
CC(=O)Cc1cc(-c2cc(CC(C)=O)[nH]n2)n[nH]1
-5.45
COc1cc(OC)c2ccc(=O)oc2c1
38.5
CC1CCC2C(C)(C)C3CC12CC1OC13C (stereo not given)
0.65

INPUT: Dear colleague, I am looking for the recorded growth inhibition of the following compound: O=C1c2ccccc2C(=O)c2c1ccc(C(=O)O)c2[N+](=O)[O-]
OUTPUT: 19.7

INPUT: Dear colleague, I am looking for the recorded growth inhibition of the following compound: Cc1cc(N)c(S(=O)(=O)O)c(N)c1
OUTPUT: 11.8

INPUT: Dear colleague, I am looking for the recorded growth inhibition of the following compound: CCOC(=O)c1ccc(Nc2sc(C(=O)c3cccc([N+](=O)[O-])c3)c(N)c2C#N)cc1
OUTPUT: 2.8

INPUT: Dear colleague, I am looking for the recorded growth inhibition of the following compound: O=C(O)c1cc([N+](=O)[O-])ccc1Cl
OUTPUT: 21.9

INPUT: Dear colleague, I am looking for the recorded growth inhibition of the following compound: CC(=O)c1c[nH]c2ccccc12
OUTPUT: -2.25

INPUT: Dear colleague, I am looking for the recorded growth inhibition of the following compound: Cc1nc2c(ccc3ccccc32)s1
OUTPUT: 3.5

INPUT: Dear colleague, I am looking for the recorded growth inhibition of the following compound: O=c1[nH]cc(Cl)cc1O
OUTPUT: 13.2

INPUT: Dear colleague, I am looking for the recorded growth inhibition of the following compound: Cc1cc(=O)cc(C)n1-c1ccccc1
OUTPUT: 12.1

INPUT: Dear colleague, I am looking for the recorded growth inhibition of the following compound: CC(=O)c1ccc2c(ccc3ccccc32)c1
OUTPUT: -5.4

INPUT: Dear colleague, I am looking for the recorded growth inhibition of the following compound: C=CCNc1ccccc1
OUTPUT: 17.6

INPUT: Dear colleague, I am looking for the recorded growth inhibition of the following compound: COc1cc(C2c3cc4c(cc3C3OC(=O)C2C3CO)OCO4)cc(OC)c1OC (stereo not given)
OUTPUT: -19.5

INPUT: Dear colleague, I am looking for the recorded growth inhibition of the following compound: CC1(C)S(=O)(=O)OCCOS1(=O)=O
OUTPUT: 7.35

INPUT: Dear colleague, I am looking for the recorded growth inhibition of the following compound: CCOC(=O)Nc1cc2c(c(N)n1)N=C(c1ccccc1)CO2
OUTPUT: 14.8

====

The following compounds are shown together with reported growth inhibition values.
- METHOD_SUMMARY: NCI Yeast Anticancer Drug Screen. Data for the mec2-1 strain (AID 157)
- CONDITIONS_USED: S. cerevisiae mec2-1 strain, at 50.0 µM, active compounds read high
About 79,000 compounds went through this panel and 15% of them were active in at least one assay; those are over-represented in the sample as a whole.
Form entry: value (%) — number only.

A selection of reference data follows.
Cc1cc(N)c(S(=O)(=O)O)c(N)c1
5.65
O=C1c2ccccc2C(=O)N1OCc1ccccc1
-30.6
Oc1ccc(N=Nc2ccc(Br)cc2)c(O)c1
31.3
CC[N+](C)(CC)CCO
-3.8
CCN(CC)C(=O)/C=C(/C)c1ccccc1
-2.65
O=C(O)c1cccc([N+](=O)[O-])c1
-8
NC(CSC(c1ccccc1)(c1ccccc1)c1ccccc1)C(=O)O (stereo not drawn)
-18.8

Consider now this further compound.
INPUT: Dear colleague, I am looking for the recorded growth inhibition of the following compound: C=C1CC/C=C(\C)C(=O)C[C@@H]2[C@@H]1CC2(C)C
OUTPUT: 11.8

====

- METHOD_SUMMARY: NCI Yeast Anticancer Drug Screen. Data for the bub3 strain (AID 167)
- CONDITIONS_USED: S. cerevisiae bub3 mutant strain, at 50.0 µM, active compounds read high
About 79,000 compounds went through this panel and 15% of them were active in at least one assay; those are over-represented in the sample as a whole.
PARAMETER: growth inhibition (%)
Form entry: value (%) — number only.

A selection of reference data follows.
O=C(O)C(c1ccccc1)C(O)c1ccccc1 (stereo not drawn)
-30.4
C/C(=C\c1ccc([N+](=O)[O-])cc1)C(=O)O
31.4
c1ccc2c(N3CCCCC3)ncnc2c1
2.15
NC(=S)N/N=C/c1ccc(N)cc1
2.35
COC(=O)c1ccccc1N(C)C
2.65
CC1Cc2ccccc2O1 (stereo not drawn)
2.9

INPUT: Dear colleague, I am looking for the recorded growth inhibition of the following compound: O=[N+]([O-])c1ccc(Cl)c(S(=O)(=O)O)c1
OUTPUT: 10.8

INPUT: Dear colleague, I am looking for the recorded growth inhibition of the following compound: CCCCCCCCCCCCCCCCC1CC(=O)OC1=O (stereo not drawn)
OUTPUT: -11.3

INPUT: Dear colleague, I am looking for the recorded growth inhibition of the following compound: Cc1ccc(C(=O)N/N=C/c2ccc3c(c2)OCO3)cc1
OUTPUT: 6.2

====

- METHOD_SUMMARY: NCI Yeast Anticancer Drug Screen. Data for the sgs1 mgt1 strain (AID 161);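 also: 0% = growth of cultures given vehicle only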
- CONDITIONS_USED: S. cerevisiae sgs1 mgt1 strain, at 50.0 µM, active compounds read high
About 79,000 compounds went through this panel and 15% of them were active in at least one assay; those are over-represented in the sample as a whole. Calls of active or inactive are those of the source. Cut-off read from the data, not from the text of the source: active = growth inhibition above about 70%; inactive = the rest.
The following compounds are shown together with reported growth inhibition values.

CS(=O)CC1=NC(=N)N=C1CS(C)=O (stereo unspecified)
12.1% (inactive)
COc1ccccc1N1CCN(C(=S)Nc2ccccc2)CC1
0.8% (inactive)

Consider now this further compound.
INPUT: Dear colleague, I am looking for the recorded growth inhibition of the following compound: CC1=CC(C)(C)NC(=S)N1c1ccc(S(=O)(=O)O)c2cccc(S(=O)(=O)O)c12
OUTPUT: -13.1% (inactive)

====

- METHOD_SUMMARY: NCI Yeast Anticancer Drug Screen. Data for the bub3 strain (AID 167)
- CONDITIONS_USED: S. cerevisiae bub3 mutant strain, at 50.0 µM, active compounds read high
Compounds without any hit were thinned out: in the full panel of roughly 79,000, 15% have a hit. Calls of active or inactive are those of the source. Cut-off read from the data, not from the text of the source: active = growth inhibition above about 70%; inactive = the rest.
PARAMETER: growth inhibition

A selection of reference data follows.
CC(=O)c1ccc(N=C(C#N)C2=C(O)c3ccccc3C2=O)cc1
10.9% (inactive)
Nc1ccc(CC(=O)O)c(N)c1
4.6% (inactive)
COC(=O)C(O)c1ccccc1 (centres undefined)
11.1% (inactive)
CC(=O)c1cc2c(cc1F)C(C)(C)CCC2(C)C
-20.1% (inactive)
COc1cc(C2NC(=O)C(C#N)=C(Nc3cccc(C)c3)S2)ccc1O (centres undefined)
-6.15% (inactive)
CCCCCC(C)(CC(=O)O)CC(=O)O
0.7% (inactive)
O=C(O)CCCc1ccccc1
6% (inactive)
C/C(=C\c1cc(Cl)ccc1OCC(=O)O)[N+](=O)[O-]
40.8% (inactive)
COc1ccc(C(=O)C(Br)C(Br)C(=O)O)cc1 (centres undefined)
5.45% (inactive)
COc1ccccc1N1CCN(C(=S)Nc2ccccc2)CC1
-2.7% (inactive)

INPUT: Dear colleague, I am looking for the recorded growth inhibition of the following molecule: O=[N+]([O-])c1ccccc1S(=O)c1ccccc1[N+](=O)[O-]
OUTPUT: 39.2% (inactive)

INPUT: Dear colleague, I am looking for the recorded growth inhibition of the following molecule: COC(=O)c1ccc(NC(=O)CCl)cc1
OUTPUT: 32.7% (inactive)

INPUT: Dear colleague, I am looking for the recorded growth inhibition of the following molecule: C[C@]12CC[C@@H]3c4ccc(OCC(=O)O)cc4CC[C@H]3[C@@H]1CCC2=O
OUTPUT: 5.6% (inactive)

INPUT: Dear colleague, I am looking for the recorded growth inhibition of the following molecule: CC(C)=C(NC(=O)c1ccccc1)C(=O)O
OUTPUT: -2.7% (inactive)

Numbers sourced from PubChem BioAssay (NCI).
